Target: Estrogen Receptor (ERα) in MCF-7 cells (Homo sapiens (Human), UniProt P03372)
Sequence (P03372 whole entry): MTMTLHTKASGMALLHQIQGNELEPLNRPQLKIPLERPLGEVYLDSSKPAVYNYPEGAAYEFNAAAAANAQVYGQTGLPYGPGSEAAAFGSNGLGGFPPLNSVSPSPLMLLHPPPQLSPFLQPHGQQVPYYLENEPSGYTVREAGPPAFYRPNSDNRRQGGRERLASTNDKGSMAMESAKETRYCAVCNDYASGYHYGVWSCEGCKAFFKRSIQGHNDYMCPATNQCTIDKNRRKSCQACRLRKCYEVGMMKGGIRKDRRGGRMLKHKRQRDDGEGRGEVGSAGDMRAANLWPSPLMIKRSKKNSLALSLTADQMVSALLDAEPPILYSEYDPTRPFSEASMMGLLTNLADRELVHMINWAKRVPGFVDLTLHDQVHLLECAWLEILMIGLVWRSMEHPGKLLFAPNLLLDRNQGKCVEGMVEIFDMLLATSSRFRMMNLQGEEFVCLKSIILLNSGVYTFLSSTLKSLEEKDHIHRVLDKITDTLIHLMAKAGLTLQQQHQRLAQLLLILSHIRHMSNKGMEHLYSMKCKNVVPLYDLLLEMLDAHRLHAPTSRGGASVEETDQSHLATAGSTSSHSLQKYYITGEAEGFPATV
Test: MCF-7 ER down-regulation assay (immuno-fluorescence)
Type: cell-based
Conditions: shown in brackets where not >90%
Assay Endpoint: % downregulation

> print(dat)
                                   compound    assay.endpoint  result
1  C[C@@H]1Cc2c([nH]c3ccccc23)[C@@H](c2c(F)cc(OCCNCCCF)cc2F)N1CC(C)(F)CO (single isomer, unassigned) [Example 17]  % downregulation   (85%)
2  C[C@@H]1Cc2c([nH]c3ccccc23)[C@@H](c2ccc(OCCNCCCF)nc2)N1CC1(F)CC1  % downregulation   (87%)
3  C[C@@H]1Cc2c([nH]c3ccccc23)[C@@H](c2ccc(OCCNCCCF)cn2)N1CC1(F)CC1  % downregulation   (89%)
4  C[C@@H]1Cc2c([nH]c3ccccc23)[C@@H](c2ccc(OCCNCCCF)cc2F)N1CC(C)(F)F  % downregulation   (89%)
5  C[C@H](COc1ccc([C@@H]2c3[nH]c4ccccc4c3C[C@@H](C)N2CC2(F)COC2)cc1)NCCCF  % downregulation   (48%)

* * *

Test: Thermodynamic solubility (shake flask)
Type: physicochemical
Details: aqueous phosphate buffer, 25 °C, pH 7.4, aqueous buffer, thermodynamic from solid, aqueous phosphate buffer pH 7.4, 24 hours
param class (str): category from solubility at 24 h; see ranges low range: < 300 µM; mid range: ≥ 300 µM and < 800 µM; high range: ≥ 800 µM

> print(dat)
                            chemical.smiles  qualitative.label
1  COc1cc(OCCNCCCF)ccc1[C@@H]1c2[nH]c3ccccc3c2C[C@@H](C)N1CC(F)(F)CO          mid range
2  Cc1cc(OCCNCCCF)ncc1[C@@H]1c2[nH]c3ccccc3c2C[C@@H](C)N1CC(F)F          low range
3  C[C@@H]1Cc2c([nH]c3ccccc23)[C@@H](c2ncc(OCCNCCCF)cn2)N1CC(C)(C)F          mid range
4  C[C@@H]1Cc2c([nH]c3ccccc23)[C@@H](c2c(F)cc(NCCNCCCF)cc2F)N1CC(F)(F)CO         high range
5  COc1cc(OCCNCCCF)ccc1[C@@H]1c2[nH]c3ccccc3c2C[C@@H](C)N1CC(C)(F)F          low range
6  COc1cc(OCCNCCCF)ncc1[C@@H]1c2[nH]c3ccccc3c2C[C@@H](C)N1CC1(F)CC1         high range
7  COc1cc(NCCNCCCF)ccc1[C@@H]1c2[nH]c3ccccc3c2C[C@@H](C)N1CC(F)(F)CO         high range
8  COc1cc(OCCNCCCF)ccc1[C@@H]1c2[nH]c3ccccc3c2C[C@@H](C)N1CC(F)F          low range
9  C[C@@H]1Cc2c([nH]c3ccccc23)[C@@H](c2ccc(OCCNCCCF)cc2)N1CC1(F)CC1          low range

* * *

Assay: Human plasma protein binding (equilibrium dialysis)
Type: in vitro ADME
Settings: dialysis 18 hours
Would you please tag the item label 1 when its Human plasma protein binding (% free) is 2 % free or above, and label 0 when it is below?

> print(dat)
                                    compound  qualitative.label
 1  COc1cc(OCCNCCCF)ncc1[C@@H]1c2[nH]c3ccccc3c2C[C@@H](C)N1CC(C)(C)F [Example 36]            label 1
 2  CC(CNCCCF)Oc1cc(F)c([C@@H]2c3[nH]c4ccccc4c3C[C@@H](C)N2CC(C)(C)F)c(F)c1 (stereo partly shown) [Example 19]            label 0
 3  C[C@@H]1Cc2c([nH]c3ccccc23)[C@@H](c2ccc(OCCNCCCF)cc2F)N1CC1(F)CC1 [Example 21]            label 1
 4  C[C@@H]1Cc2c([nH]c3ccccc23)[C@@H](c2ccc(OCCNCCCF)cc2)N1C[C@H](F)CF (single isomer, unassigned) [Example 26]            label 1
 5  COc1nc(OCCNCCCF)ccc1[C@@H]1c2[nH]c3ccccc3c2C[C@@H](C)N1CC(F)F [Example 75]            label 0
 6  COc1cc(OCCNCCCF)cnc1[C@@H]1c2[nH]c3ccccc3c2C[C@@H](C)N1CC(C)(C)F [Example 35]            label 1
 7  COc1cc(OCCNCCCF)ccc1[C@@H]1c2[nH]c3ccccc3c2C[C@@H](C)N1CC(C)(F)F [Example 74]            label 0
 8  C[C@@H]1Cc2c([nH]c3ccccc23)[C@@H](c2c(F)cc(NCCNCCCF)cc2F)N1CC(F)(F)CO [Example 46]            label 1
 9  C[C@@H]1Cc2c([nH]c3ccccc23)[C@@H](c2cnc(OCCNCCCF)cn2)N1CC(F)F [Example 70]            label 1
10  COc1cc(OCCNCCCF)ncc1[C@@H]1c2[nH]c3ccccc3c2C[C@@H](C)N1CC(C)(F)F [Example 42]            label 0
11  COc1cc(NCCNCCCF)ccc1[C@@H]1c2[nH]c3ccccc3c2C[C@@H](C)N1CC(F)(F)CO [Example 59]            label 1

All values here come from patent US10149839B2.
